Molecular target: T1, His-tagged PCSK9Δhelix (human, UniProt Q8NBP7 31-152; Q8NBP7 168-692)
T1 construct: Human PCSK9 M1-Q692 with an engineered TEV site, cut by TEV protease; new N-terminus of the catalytic domain is S-A168; also called His-PCSK9Δhelix; not shown: His tag
T1 sequence (Q8NBP7 31-152, stated change not applied, chain 1 of 2): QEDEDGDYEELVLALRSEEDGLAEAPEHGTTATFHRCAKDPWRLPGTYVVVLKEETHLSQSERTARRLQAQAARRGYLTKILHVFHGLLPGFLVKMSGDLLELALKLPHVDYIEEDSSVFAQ
T1 sequence (Q8NBP7 other isoform, or with tags, fused parts or gaps mutant, chain 2 of 2): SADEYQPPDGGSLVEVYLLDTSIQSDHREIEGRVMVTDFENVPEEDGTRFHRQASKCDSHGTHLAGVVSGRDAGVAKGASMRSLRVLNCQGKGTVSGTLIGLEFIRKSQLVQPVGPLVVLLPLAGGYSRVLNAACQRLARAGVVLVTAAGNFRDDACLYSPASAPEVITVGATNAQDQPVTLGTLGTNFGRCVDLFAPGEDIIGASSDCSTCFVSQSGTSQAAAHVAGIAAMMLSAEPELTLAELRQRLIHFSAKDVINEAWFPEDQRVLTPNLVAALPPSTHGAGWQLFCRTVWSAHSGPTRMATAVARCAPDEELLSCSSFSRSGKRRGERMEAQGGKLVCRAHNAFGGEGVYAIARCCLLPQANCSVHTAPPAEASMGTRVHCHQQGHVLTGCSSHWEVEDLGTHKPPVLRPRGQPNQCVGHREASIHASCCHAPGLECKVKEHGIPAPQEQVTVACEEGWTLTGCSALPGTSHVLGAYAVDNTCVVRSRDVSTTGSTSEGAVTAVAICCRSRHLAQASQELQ
Assay: TR-FRET competition (PCSK9Δhelix/Ab20 assay); competitor Ab20
Bridge positions count the residues as written; N and C are the ends. Square brackets hold non-standard residues; d marks the D form. Ends that are not written are not given here. Ahp = NCCCCCCC(=O)O

[
  {
    "binder": "WCLWNLKRIGSQCWF-NH2 (disulfide 2-13; N-terminus assumed; SMILES CC[C@H](C)[C@@H]1NC(=O)[C@H](CCCNC(=N)N)NC(=O)[C@H](CCCCN)NC(=O)[C@H](CC(C)C)NC(=O)[C@H](CC(N)=O)NC(=O)[C@H](Cc2c[nH]c3ccccc23)NC(=O)[C@H](CC(C)C)NC(=O)[C@@H](NC(=O)[C@@H](N)Cc2c[nH]c3ccccc23)CSSC[C@@H](C(=O)N[C@@H](Cc2c[nH]c3ccccc23)C(=O)N[C@@H](Cc2ccccc2)C(N)=O)NC(=O)[C@H](CCC(N)=O)NC(=O)[C@H](CO)NC(=O)CNC1=O) [Compound 89 (WCLWNLKRIGSQCWF-NH2)]",
    "value unit": "µM",
    "IC50": 2.98
  },
  {
    "binder": "Ac-CRLPWNLQRIGLAC-NH2 (disulfide 1-14; SMILES CC[C@H](C)[C@@H]1NC(=O)[C@H](CCCNC(=N)N)NC(=O)[C@H](CCC(N)=O)NC(=O)[C@H](CC(C)C)NC(=O)[C@H](CC(N)=O)NC(=O)[C@H](Cc2c[nH]c3ccccc23)NC(=O)[C@@H]2CCCN2C(=O)[C@H](CC(C)C)NC(=O)[C@H](CCCNC(=N)N)NC(=O)[C@@H](NC(C)=O)CSSC[C@@H](C(N)=O)NC(=O)[C@H](C)NC(=O)[C@H](CC(C)C)NC(=O)CNC1=O) [Compound 68 (Ac-CRLPWNLQRIGLAC-NH2)]",
    "value unit": "µM",
    "IC50": 0.939
  },
  {
    "binder": "Ac-CRLPWNLQRI[Ahp]C-NH2 (disulfide 1-12; SMILES CC[C@H](C)[C@@H]1NC(=O)[C@H](CCCNC(=N)N)NC(=O)[C@H](CCC(N)=O)NC(=O)[C@H](CC(C)C)NC(=O)[C@H](CC(N)=O)NC(=O)[C@H](Cc2c[nH]c3ccccc23)NC(=O)[C@@H]2CCCN2C(=O)[C@H](CC(C)C)NC(=O)[C@H](CCCNC(=N)N)NC(=O)[C@@H](NC(C)=O)CSSC[C@@H](C(N)=O)NC(=O)CCCCCCNC1=O) [Compound 121 (Ac-CRLPWNLQRI-(Ahp)-C-NH2)]",
    "value unit": "µM",
    "IC50": 40.3
  },
  {
    "binder": "Ac-WCLWNLKRIGSQCWF (disulfide 2-13) [Compound 90 (Ac-WCLWNLKRIGSQCWF)]",
    "value unit": "µM",
    "IC50": 7.38
  },
  {
    "binder": "Ac-SGCRLPWNLQRIGLPC-NH2 (disulfide 3-16) [Compound 30 (Ac-SG-CRLPWNLQRIGLPC-NH2)]",
    "value unit": "µM",
    "IC50": 0.95
  },
  {
    "binder": "Ac-CRLPANLQRIGLPC-NH2 (disulfide 1-14; SMILES CC[C@H](C)[C@@H]1NC(=O)[C@H](CCCNC(=N)N)NC(=O)[C@H](CCC(N)=O)NC(=O)[C@H](CC(C)C)NC(=O)[C@H](CC(N)=O)NC(=O)[C@H](C)NC(=O)[C@@H]2CCCN2C(=O)[C@H](CC(C)C)NC(=O)[C@H](CCCNC(=N)N)NC(=O)[C@@H](NC(C)=O)CSSC[C@@H](C(N)=O)NC(=O)[C@@H]2CCCN2C(=O)[C@H](CC(C)C)NC(=O)CNC1=O) [Compound 76 (Ac-CRLPANLQRIGLPC-NH2)]",
    "value unit": "µM",
    "IC50": 49.5
  }
]
